- procedure_summary: The drug is tested on WLS-086 corresponding to human gut metagenome with ENA study accession number: PRJEB37062 and ENA sample accession number: ERS12561752 for biotransformation under anaerobic condition. The drug concentrations were measured over 9 timepoints collected between 0 and 24 hours of incubation by liquid-chromatography-coupled mass spectrometry (LC–MS); further: call rule not given here
- recorded_conditions: 2 µM
assay_endpoint: Bacterial Biotransformation

• CCOc1ccc2nc(S(N)(=O)=O)sc2c1 [ETHOXZOLAMIDE] = Compound metabolized
• COc1cc2nc(N3CCN(C(=O)C4CCCO4)CC3)nc(N)c2cc1OC (stereo not given) = Compound metabolized
• Br.CN1CCC[C@@H]1Cc1c[nH]c2ccc(CCS(=O)(=O)c3ccccc3)cc12 [ELETRIPTAN HYDROBROMIDE] = Compound metabolized
• C#C[C@]1(OC(C)=O)CC[C@H]2[C@@H]3CCC4=CC(=O)CC[C@@H]4[C@H]3CC[C@@]21C [NORETHINDRONE ACETATE] = Compound NOT metabolized
• CCCN1C[C@H](CSC)C[C@@H]2c3cccc4[nH]cc(c34)C[C@H]21.CS(=O)(=O)O [PERGOLIDE MESYLATE] = Compound metabolized
• COCCCC/C(=N\OCCN)c1ccc(C(F)(F)F)cc1.O=C(O)/C=C\C(=O)O [FLUVOXAMINE MALEATE] = Compound NOT metabolized
• CC(C)(C)NC[C@H](O)COc1nsnc1N1CCOCC1.O=C(O)/C=C\C(=O)O [TIMOLOL MALEATE] = Compound NOT metabolized
• CNNCc1ccc(C(=O)NC(C)C)cc1 = Compound metabolized
• OCCN(CCO)c1nc(N2CCCCC2)c2nc(N(CCO)CCO)nc(N3CCCCC3)c2n1 = Compound metabolized
• Clc1cccc(Cl)c1N=C1NCCN1 = Compound metabolized
• CC(N)C12CC3CC(CC(C3)C1)C2 (stereo not given) = Compound NOT metabolized
• CC(CCc1ccccc1)NCC(O)c1ccc(O)c(C(N)=O)c1 (stereo not given) = Compound metabolized
• O=C1C(CC[S+]([O-])c2ccccc2)C(=O)N(c2ccccc2)N1c1ccccc1 (stereo not given) = Compound metabolized
• COc1ccnc(C[S+]([O-])c2nc3ccc(OC(F)F)cc3[nH]2)c1OC (stereo not given) = Compound metabolized
• CCOC(=O)[C@H](CCc1ccccc1)N[C@@H](C)C(=O)N1Cc2ccccc2C[C@H]1C(=O)O = Compound metabolized
• CC(C)(C)NC(=O)[C@H]1CC[C@H]2[C@@H]3CC[C@H]4NC(=O)C=C[C@]4(C)[C@H]3CC[C@]12C [FINASTERIDE] = Compound metabolized
• CCOc1ccccc1OCCN[C@H](C)Cc1ccc(OC)c(S(N)(=O)=O)c1.Cl [TAMSULOSIN HYDROCHLORIDE] = Compound metabolized
• CC(C)(C)NCC(O)COc1cccc2c1CC(O)C(O)C2 (stereo not given) = Compound metabolized
• CC(=O)O[C@]1(C(C)=O)CC[C@H]2[C@@H]3C=C(C)C4=CC(=O)CC[C@]4(C)[C@H]3CC[C@@]21C [MEGESTROL ACETATE] = Compound metabolized
• C#C[C@]1(OC(C)=O)CC[C@H]2[C@@H]3CCC4=C[C@@H](OC(C)=O)CC[C@@H]4[C@H]3CC[C@@]21C [ETHYNODIOL DIACETATE] = Compound metabolized
• CCN1CCCC1CNC(=O)c1cc(S(=O)(=O)CC)c(N)cc1OC (stereo not given) [AMISULPRIDE] = Compound metabolized
• CN(C)CCOC(C)(c1ccccc1)c1ccccn1.O=C(O)CCC(=O)O (stereo not given) [DOXYLAMINE SUCCINATE] = Compound NOT metabolized
• N=C(N)NC(=O)Cc1c(Cl)cccc1Cl = Compound NOT metabolized
• COc1ccc(Cc2nccc3cc(OC)c(OC)cc23)cc1OC = Compound metabolized
• C[C@@H](c1ncncc1F)[C@](O)(Cn1cncn1)c1ccc(F)cc1F = Compound metabolized
• CC(=O)OCC(=O)NCCCOc1cccc(CN2CCCCC2)c1 [ROXATIDINE ACETATE] = Compound metabolized
• CC1Cc2ccccc2N1NC(=O)c1ccc(Cl)c(S(N)(=O)=O)c1 (stereo not given) [INDAPAMIDE] = Compound NOT metabolized
• Cc1cc(C)cc(OCC2CNC(=O)O2)c1 (stereo not given) = Compound metabolized
• CC(C)NCC(O)COc1ccc(CC(N)=O)cc1 (stereo not given) = Compound metabolized
• Nc1nnc(-c2cccc(Cl)c2Cl)c(N)n1 = Compound metabolized
• C#C[C@]1(OC(C)=O)CC[C@H]2[C@@H]3CCC4=C/C(=N/O)CC[C@@H]4[C@H]3CC[C@@]21CC [NORGESTIMATE] = Compound metabolized
• COc1ccc(C(CN(C)C)C2(O)CCCCC2)cc1 (stereo not given) = Compound NOT metabolized
• COc1cc2nc(N3CCN(C(=O)C4COc5ccccc5O4)CC3)nc(N)c2cc1OC.CS(=O)(=O)O (stereo not given) [DOXAZOSIN MESYLATE] = Compound metabolized
• CN1[C@@H]2CC[C@H]1C[C@@H](OC(=O)c1c[nH]c3ccccc13)C2 = Compound metabolized
• CCCN(CCC)CCc1cccc2c1CC(=O)N2 = Compound metabolized

* * *

- procedure_summary: The drug is tested on Z-012 corresponding to metagenome with ENA study accession number: PRJEB37062 and ENA sample accession number: ERS12561812 for biotransformation under anaerobic condition. The drug concentrations were measured over 9 timepoints collected between 0 and 24 hours of incubation by liquid-chromatography-coupled mass spectrometry (LC–MS)
- recorded_conditions: 2 µM
assay_endpoint: Bacterial Biotransformation

- O=C(O)c1cc(/N=N/c2ccc(S(=O)(=O)Nc3ccccn3)cc2)ccc1O: Compound metabolized
- CC(C)(C)N.CCC[C@H](N[C@@H](C)C(=O)N1[C@H](C(=O)O)C[C@@H]2CCCC[C@@H]21)C(=O)OCC: Compound metabolized
- CN(C)CCOC(C)(c1ccccc1)c1ccccn1.O=C(O)CCC(=O)O (stereo not given) [DOXYLAMINE SUCCINATE]: Compound NOT metabolized
- CCCC(C)(COC(N)=O)COC(=O)NC(C)C (stereo not given): Compound metabolized
- CN(C)CCC=C1c2ccccc2COc2ccccc21 [DOXEPIN]: Compound NOT metabolized
- CN(C)C(=O)Oc1cccc([N+](C)(C)C)c1.[Br-] [NEOSTIGMINE BROMIDE]: Compound NOT metabolized
- CCS(=O)(=O)CCn1c([N+](=O)[O-])cnc1C: Compound metabolized
- CC(C)(C)NC(=O)[C@H]1CC[C@H]2[C@@H]3CC[C@H]4NC(=O)C=C[C@]4(C)[C@H]3CC[C@]12C [FINASTERIDE]: Compound metabolized
- CN1CCC(=C2c3ccccc3CC(=O)c3sccc32)CC1.O=C(O)/C=C/C(=O)O [KETOTIFEN FUMARATE]: Compound NOT metabolized
- C[C@H]1C[C@H]2[C@@H]3CCC4=CC(=O)C=C[C@]4(C)[C@@]3(F)[C@@H](O)C[C@]2(C)[C@@]1(O)C(=O)CO: Compound metabolized
- C=CC[C@@H]1/C=C(\C)C[C@H](C)C[C@H](OC)[C@H]2O[C@@](O)(C(=O)C(=O)N3CCCC[C@H]3C(=O)O[C@H](/C(C)=C/[C@@H]3CC[C@@H](O)[C@H](OC)C3)[C@H](C)[C@@H](O)CC1=O)[C@H](C)C[C@@H]2OC.O: Compound NOT metabolized
- CC(=O)OCC(CCn1cnc2cnc(N)nc21)COC(C)=O: Compound NOT metabolized
- CCN1CCCC1CNC(=O)c1cc(S(=O)(=O)CC)c(N)cc1OC (stereo not given) [AMISULPRIDE]: Compound NOT metabolized
- COc1ccnc(C[S+]([O-])c2nc3ccc(OC(F)F)cc3[nH]2)c1OC (stereo not given): Compound metabolized
- CN1[C@@H]2CC[C@H]1C[C@@H](OC(=O)c1c[nH]c3ccccc13)C2: Compound NOT metabolized

* * *

- recorded_conditions: human gut metagenome, 24 h, 2 µM
assay_endpoint: Bacterial Biotransformation

- CC1=C(CC(=O)O)c2cc(F)ccc2/C1=C\c1ccc([S+](C)[O-])cc1 (stereo not given): Compound metabolized
- Br.CN1CCC[C@@H]1Cc1c[nH]c2ccc(CCS(=O)(=O)c3ccccc3)cc12 [ELETRIPTAN HYDROBROMIDE]: Compound metabolized
- CCc1oc2ccccc2c1C(=O)c1cc(Br)c(O)c(Br)c1 [BENZBROMARONE]: Compound NOT metabolized
- CCN(CC)CCNC(=O)c1cc(S(C)(=O)=O)ccc1OC [TIAPRIDE]: Compound NOT metabolized
- COC1=C(OC)C(=O)C(CCCCCCCCCCO)=C(C)C1=O [IDEBENONE]: Compound metabolized

* * *

- recorded_conditions: human gut metagenome, 24 h, 2 µM
assay_endpoint: Bacterial Biotransformation

* CC[C@H](C)C(=O)O[C@H]1CCC=C2C=C[C@H](C)[C@H](CC[C@@H]3C[C@@H](O)CC(=O)O3)[C@H]21 | Compound metabolized
* Cc1ccccc1C(OCCN(C)C)c1ccccc1.O=C(O)CC(O)(CC(=O)O)C(=O)O (stereo not drawn) [ORPHENADRINE CITRATE] | Compound metabolized
* CC(C)c1c(CN(C)C(C)Cc2ccccc2)n(C)n(-c2ccccc2)c1=O (stereo not drawn) | Compound metabolized
* COc1ccccc1OCCNCC(O)COc1cccc2[nH]c3ccccc3c12 (stereo not drawn) | Compound metabolized
* CCOc1ccccc1OCCN[C@H](C)Cc1ccc(OC)c(S(N)(=O)=O)c1.Cl [TAMSULOSIN HYDROCHLORIDE] | Compound NOT metabolized
* CC(=O)OCC(=O)NCCCOc1cccc(CN2CCCCC2)c1 [ROXATIDINE ACETATE] | Compound metabolized
* COc1ccc([C@@H]2Sc3ccccc3N(CCN(C)C)C(=O)[C@@H]2OC(C)=O)cc1 | Compound metabolized
* Nc1nc(N)nc(-c2cc(Cl)ccc2Cl)n1.O=C(O)/C=C\C(=O)O [IRSOGLADINE MALEATE] | Compound NOT metabolized
